assay system: human A2a receptors (HEK 293 transfected) (Homo sapiens (Human), UniProt P29274)
Sequence (P29274 whole entry): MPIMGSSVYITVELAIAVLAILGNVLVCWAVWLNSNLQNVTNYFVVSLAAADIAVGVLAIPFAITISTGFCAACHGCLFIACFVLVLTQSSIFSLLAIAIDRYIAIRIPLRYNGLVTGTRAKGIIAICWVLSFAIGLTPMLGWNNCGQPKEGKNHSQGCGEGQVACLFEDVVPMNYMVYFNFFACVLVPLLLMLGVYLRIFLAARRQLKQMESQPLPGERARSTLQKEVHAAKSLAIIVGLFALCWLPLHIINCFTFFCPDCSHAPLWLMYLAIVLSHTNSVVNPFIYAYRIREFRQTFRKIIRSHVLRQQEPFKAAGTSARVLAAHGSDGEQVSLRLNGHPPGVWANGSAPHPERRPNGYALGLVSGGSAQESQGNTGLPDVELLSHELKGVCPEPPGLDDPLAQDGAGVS
experiment: Inhibition of cAMP release in HEK-A2aR cells (HTRF, LANCE Ultra cAMP)
measurement setup: 3 nM NECA, 10 min
Binning rule for recorded EC50: range A = under 30 nM, range B = from 30 nM up to 100 nM, range C = 100 nM and over

q: Could you tell me which band Cc1ccc(Cn2cc3c(N)nc(-c4ccsn4)nc3n2)cc1 belongs to?
a: range C

q: Also, COc1cccc(Cn2cc3c(N)nc(-c4cnco4)nc3n2)c1 please.
a: range B

q: Also, Nc1nc(-c2ccsn2)nc2nn(Cc3cccc(OC(F)(F)F)c3)cc12 please.
a: range A

q: Also, Cc1cccc(Cn2cc3c(N)nc(-c4cnccn4)nc3n2)c1 please.
a: range A

q: Also, COc1cccc(Cn2cc3c(N)nc(-c4ncco4)nc3n2)c1 please.
a: range C

q: Also, Cc1ccc(Cn2cc3c(N)nc(-c4ccsn4)nc3n2)cc1C(F)(F)F please.
a: range A

q: Also, Nc1nc(-c2ccsn2)nc2nn(Cc3cccc(Cl)c3)cc12 please.
a: range B

q: Also, Cc1ccc(Cn2cc3c(N)nc(-c4cnccn4)nc3n2)cc1 please.
a: range C

q: Also, COc1cccc(Cn2cc3c(N)nc(-c4cscn4)nc3n2)c1 please.
a: range C

q: Also, Nc1nc(-c2ccsn2)nc2nn(Cc3cc(Cl)ccc3Cl)cc12 please.
a: range C

q: Also, COc1cccc(Cn2cc3c(N)nc(-c4nccs4)nc3n2)c1 please.
a: range A

q: Also, Nc1nc(-c2cnccn2)nc2nn(Cc3cccc(F)c3)cc12 please.
a: range C

q: Also, COc1ccccc1Cn1cc2c(N)nc(-c3ccsn3)nc2n1 please.
a: range A

q: Also, COc1ccccc1Cn1cc2c(N)nc(-c3ccc(C)o3)nc2n1 [Comparative Example 1, reference compound] please.
a: range A

q: Also, COc1ccccc1Cn1cc2c(N)nc(-c3cnco3)nc2n1 please.
a: range A

q: Also, Cc1ccccc1Cn1cc2c(N)nc(-c3ccsn3)nc2n1 please.
a: range A

q: Also, Cc1cccc(Cn2cc3c(N)nc(-c4ccsn4)nc3n2)c1 please.
a: range A

q: Also, Nc1nc(-c2nccs2)nc2nn(Cc3nccs3)cc12 please.
a: range C

q: Also, Cc1ccc(Cn2cc3c(N)nc(-c4ccsn4)nc3n2)cc1F please.
a: range B

q: Also, Cc1ccc(Cn2cc3c(N)nc(-c4nccs4)nc3n2)cc1 please.
a: range B

q: Also, COc1cc(C)ccc1Cn1cc2c(N)nc(-c3ccsn3)nc2n1 please.
a: range C

q: Also, COc1cccc(Cn2cc3c(N)nc(-c4cnccn4)nc3n2)c1 please.
a: range C

q: Also, COc1cc(Cn2cc3c(N)nc(-c4ccsn4)nc3n2)ccc1C please.
a: range C

q: Also, Cc1ccc(Cn2cc3c(N)nc(-c4ccsn4)nc3n2)cc1C please.
a: range A

q: Also, Cc1cccc(Cn2cc3c(N)nc(-c4ncco4)nc3n2)c1 please.
a: range C

q: Also, Nc1nc(-c2ccsn2)nc2nn(Cc3cccc(F)c3)cc12 please.
a: range C

q: Also, Nc1nc(-c2ccsn2)nc2nn(Cc3ccccc3O)cc12 please.
a: range C

q: Also, COc1cccc(Cn2cc3c(N)nc(-c4ccsn4)nc3n2)c1 please.
a: range C

q: Also, Nc1nc(-c2ccsn2)nc2nn(Cc3ccc(C(F)(F)F)cc3)cc12 please.
a: range C

q: Also, Cc1ccccc1Cn1cc2c(N)nc(-c3cnccn3)nc2n1 please.
a: range B

q: Also, Nc1nc(-c2cnccn2)nc2nn(Cc3cccc(C(F)(F)F)c3)cc12 please.
a: range A

q: Also, COc1ccccc1Cn1cc2c(N)nc(-c3ncco3)nc2n1 please.
a: range C

q: Also, COc1ccccc1Cn1cc2c(N)nc(-c3cnccn3)nc2n1 please.
a: range B
